Each record here notes measured soluble fraction (log2).
# measurement-protocol: soluble fraction after stress (log2 fold change); higher = more stays soluble; pooled small domains, quantitative proteomics
# condition-context: stress: 50 degC
assay-metric: soluble fraction (log2)

* HMHYNMNYLENLTKTELFDLAKNKFGLTYAEMERHLSIPEGGARYAIKAEHSKYGSDIKKYLVEFLLE | -1.18
* HMNSKIIVESIIKSKNGIAKVADLVEGGVSRQSIKKMYADGYIKRISRGYYTLTSEPVSSDEQVISS | -0.333
* HMRSSALDEIPGIGKQRKKNLLVHFTSVAKIKEASLDEIAAVPGMNRKAALVVVEFFQNQERE | -1.79
* HMAGTWQDQGNGQWKYQNDDGSYATGWIEDSGKSYYLDANGIMLANTTTPDGKQVGPDGALIP | -0.141
* HMGPSSIVVYVSGAVKTPGVYTLAPGSRVDDAVRAAGGLSERAESAGTNLAAQLSDGEHVHVAAAGE | 0.228
* HMEQNHYEVLGVSRDAIPEEIRKAYFEYARKLHPDANPDPGAAEQFMRIQTAYDVLSNPDRRHEYDGLLPP | -0.000773
* HMIKLSTNENTALRLVMERGLVTESELKGLFDNPVAVMESLISKMIETNTHWIHSERSENGEWVYAWQ | -0.456
* HMFLPFFDNLRKAGVPVSLREFLGFLEGMKAGLATYDIDAFYFLARTTMVKDERNLDKFDRAFSATFKG | -0.563

====

# measurement-protocol: soluble fraction after stress (log2 fold change); higher = more stays soluble; pooled small domains, quantitative proteomics
# condition-context: stress: 50 degC
assay-metric: soluble fraction (log2)

* HMIADPAKPDWTTILAPVTTGTTVTHKTFGQGTVTKLDKTKKYLTVSFAAGQKNFVFPNAFIDGFLK | 0.203
* HMIPLPEDVASMRERLALTPEKADELFGLEDGSFARYEHGEEKVPFVVFQLLWLLGKYPHLIGELR | -0.818
* HMLPKNITNTIDHWIQKFPQGKQRSAIIAALHAVQHHNKGFLTNDLLNQVADYIDVPKMNVYEVATFYSM | 0.0843
* HMLPIKLDLEIGENVRVVSGPLENFVGSVVSFDTDQQKVKLVVEMFGRKTPVELDFIEVQKLR | -0.435
* HMDKPGMRLNQFIAHSGISSRREADNLIKAGLVQVNGKIIVEMGFRVMPTDIVKFNNETIAS | -1.46
* HMTRVANIPYSEFLKLVETDKINDVSMVGKTISGHLDDGTKFSTYTPPNDPNLIDKLSKHNVIIKAGPE | 0.0971
* HMSDPVKQVAMRILDLREISDYTVDKMAEVLNVPVEEYRKYESGEVDMPISFLVKIGEVFHVDMTELLTG | -0.219
* HMRIAQYRQIENDLLEQINLGYYKKGDLIPTELELSATYHVSRVTVRKATDNLVAKGILQRVAGVGTFVSR | -1.87
* HMTEWDDATVKDAVEYFMSVNGRVPTVTDFKKENGLPSHPVIKQRYKINLHEWLNKNFPTYY | -0.544
* HMELEFLTEKQKEALILAVNRGYYDVDSEVTLKRLADELGIARSTYGEHLKRAESEALKMVVSDLLRD | -0.382
* HMSELSEVIEKTFEELPEELKLIVKLREIDDLSYDEISNKIGIPIGTVRSRLHRAREILINIIKN | -1.55
* HMNKMIDAPDLTGLSLEDAKLVLEANKLQLGTVSHEPSDKPEDVVISQDPMEGQEIQQGGKVNLVVSYGD | -0.0696
* HMDVLFGNRLRQLLDERNISQAHFADRIGVSRSRMNNYVAQRSEPDYATLIRIANTLDTSIDFLLGKS | -1.93
* HMEKNILPDTSPEKQYEFATSFLKVGDYSTAERAFREFVINNSEHKLAGNAQYWYAETFRIRQ | -0.101
* HMERLKYSQVVDLFKGEQVKSFVLDESNQLKMELQDGSTVSYKLRSFEQFYLDLSDTVKEQKESGIITDYD | -0.746
* HMQDPVWVDWLGENDWFQKDPKRRGLANGYSEILRAEQPELVGRPFLDEVTRRVQADFPELFG | -0.335
* HMIVMPELRGKDLKEAERLLSSHNLRYELVDSVYDKSLAPGVVVEMVPQSGNTVKPGRIIFLSINA | -0.878
